# Target or test system: T1, recombinant human KAAG1 (purified protein) (human, UniProt Q9UBP8 1-84, limits assumed)
# T1 construct: also called gel filtration purified KAAG1
# T1 sequence: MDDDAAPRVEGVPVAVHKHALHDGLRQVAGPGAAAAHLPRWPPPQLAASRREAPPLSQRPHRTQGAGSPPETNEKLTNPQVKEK
# Procedure text: SPR as above; KD relative to LcHc

- Binder: "humanized 3A4 antibody Lh1Hh2 (antibody, human IgG1, kappa, V domains shown, human IgG1 kappa) VH: QIQLVQSGAEVKKPGASVKVSCKASGYTFTDDYMSWVRQAPGQGLEWMGDINPYNGDTNYNQKFKGRVTITADKSTSTAYMELSSLRSEDTAVYYCARDPGAMDYWGQGTLVTVSS VL: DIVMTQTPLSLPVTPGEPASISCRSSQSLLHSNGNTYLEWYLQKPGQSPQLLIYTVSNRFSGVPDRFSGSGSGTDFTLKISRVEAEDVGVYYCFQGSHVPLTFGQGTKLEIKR"
  Fold diff., fold: 13.2
- Binder: "humanized 3A4 antibody Lh2Hh4 (antibody, human IgG1, kappa, V domains shown, human IgG1 kappa; 10 mouse framework residues retained; also called H4L2) VH: QIQLVQSGAEVKKPGASVKVSCKASGYTFTDDYMSWVKQAPGQGLEWIGDINPYNGDTNYNQKFKGKATLTVDKSTSTAYMELSSLRSEDTAVYYCARDPGAMDYWGQGTLVTVSS VL: DVVMTQTPLSLPVTPGEPASISCRSSQSLLHSNGNTYLEWYLQKPGQSPKLLIYTVSNRFSGVPDRFSGSGSGTDFTLKISRVEAEDVGVYYCFQGSHVPLTFGQGTKLEIKR"
  Fold diff., fold: 6.4

Cited source: patent US20210054067A1
